Target: hERG channel (Homo sapiens)
Construct: expressed in transfected cells; host or cells: HEK293, stably transfected; membranes
Sequence (Q12809 whole entry): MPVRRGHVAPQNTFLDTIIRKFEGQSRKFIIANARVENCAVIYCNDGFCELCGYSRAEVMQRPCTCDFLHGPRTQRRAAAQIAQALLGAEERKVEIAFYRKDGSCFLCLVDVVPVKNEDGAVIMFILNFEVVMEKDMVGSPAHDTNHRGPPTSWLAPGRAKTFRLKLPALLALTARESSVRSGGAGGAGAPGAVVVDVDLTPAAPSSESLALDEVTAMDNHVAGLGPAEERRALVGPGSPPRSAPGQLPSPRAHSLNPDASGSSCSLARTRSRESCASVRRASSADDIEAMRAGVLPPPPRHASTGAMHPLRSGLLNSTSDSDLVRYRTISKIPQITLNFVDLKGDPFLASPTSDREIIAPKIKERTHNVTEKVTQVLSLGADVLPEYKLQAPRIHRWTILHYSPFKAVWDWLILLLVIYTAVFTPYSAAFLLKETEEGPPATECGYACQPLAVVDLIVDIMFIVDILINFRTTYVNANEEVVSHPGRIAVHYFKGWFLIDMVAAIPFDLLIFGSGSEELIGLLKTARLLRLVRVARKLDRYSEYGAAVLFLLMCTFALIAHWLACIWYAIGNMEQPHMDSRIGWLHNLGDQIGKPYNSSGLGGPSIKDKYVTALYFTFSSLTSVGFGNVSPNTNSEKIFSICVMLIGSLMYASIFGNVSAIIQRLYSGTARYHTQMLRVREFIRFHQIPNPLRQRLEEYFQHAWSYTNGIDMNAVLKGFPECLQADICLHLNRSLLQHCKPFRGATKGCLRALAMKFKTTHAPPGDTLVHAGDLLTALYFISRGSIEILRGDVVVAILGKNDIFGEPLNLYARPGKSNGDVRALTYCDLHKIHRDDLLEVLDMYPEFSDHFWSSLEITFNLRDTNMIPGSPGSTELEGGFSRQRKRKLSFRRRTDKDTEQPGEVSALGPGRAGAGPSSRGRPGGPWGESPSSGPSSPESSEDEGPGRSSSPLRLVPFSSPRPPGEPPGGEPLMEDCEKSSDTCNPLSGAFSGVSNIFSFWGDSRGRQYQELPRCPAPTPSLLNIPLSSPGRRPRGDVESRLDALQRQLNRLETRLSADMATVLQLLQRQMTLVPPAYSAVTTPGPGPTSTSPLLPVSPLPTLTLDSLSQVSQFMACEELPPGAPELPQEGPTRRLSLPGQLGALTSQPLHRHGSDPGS
Experiment: MK-499 Filter Binding Assay
Conditions: human, pH 7.4, probe [35S]MK-0499 radioligand; [35S]MK-0499 radioligand competition, membranes of HEK293 cells expressing hERG; read-out: MK499 IC50
Assay endpoint: IC50 at 90 min

| Compound structure string | Target or test system | Result |
| --- | --- | --- |
| C[C@H]1OC(=O)[C@]2(O)CC(F)(F)[C@@H](C)[C@H](/C=C/c3ccc(-c4cccnc4-c4cncn4C)cn3)[C@H]12 | hERG channel (Homo sapiens) | ≥ 60 µM |
| C[C@H]1OC(=O)[C@]2(O)CC(F)(F)[C@@H](C)[C@H](/C=C/c3ccc(-c4cccnc4N4CC(F)(F)C4)cn3)[C@H]12 | hERG channel (Homo sapiens) | ≥ 60 µM |

Turning now to a further record.
Query string: Return IC50 at 90 min for the following compound: C[C@H]1OC(=O)[C@]2(O)CC(F)(F)[C@@H](C)[C@H](/C=C/c3ccc(-c4cccnc4C4CC4)cn3)[C@H]12
Result string: ≥ 60 µM

Where these numbers come from: patent US9808473B2
